Target: Transcription factor p65 (Homo sapiens, UniProt Q04206)
Sequence (Q04206 whole entry): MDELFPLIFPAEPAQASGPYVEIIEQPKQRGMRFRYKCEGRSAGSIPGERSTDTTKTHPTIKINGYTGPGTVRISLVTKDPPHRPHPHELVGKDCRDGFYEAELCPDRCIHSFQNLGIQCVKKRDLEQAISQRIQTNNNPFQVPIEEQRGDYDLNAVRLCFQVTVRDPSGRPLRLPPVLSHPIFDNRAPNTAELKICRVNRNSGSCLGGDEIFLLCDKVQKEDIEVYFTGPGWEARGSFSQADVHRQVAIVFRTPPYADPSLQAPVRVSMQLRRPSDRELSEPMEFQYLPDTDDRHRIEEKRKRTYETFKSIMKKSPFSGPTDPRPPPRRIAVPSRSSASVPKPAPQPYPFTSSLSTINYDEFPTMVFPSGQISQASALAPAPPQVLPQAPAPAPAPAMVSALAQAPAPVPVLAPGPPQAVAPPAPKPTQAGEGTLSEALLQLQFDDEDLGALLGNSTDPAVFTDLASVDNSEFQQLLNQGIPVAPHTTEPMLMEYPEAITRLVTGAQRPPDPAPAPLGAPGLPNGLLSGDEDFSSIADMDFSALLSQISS
Test: Inhibition of NF-kappaB p65 isolated from nuclear extract of human HeLa cells assessed as blockade of binding to biotinylated consesus sequence by chemiluminescence assay
pIC50: −log10 of the molar value.
For each record, write down the corresponding pIC50.

Reported pIC50 for Transcription factor p65 (Homo sapiens, UniProt Q04206), given CC(C)(O)[C@@H]1CC[C@@]2(O)CC[C@]3(C)[C@H](CC[C@@H]4[C@@]5(C)CCC(=O)C(C)(C)[C@H]5CC[C@]43C)[C@H]2O1 ?
< 4.70

Repeat for the following molecule: CC(C)C1=CC2=C(CO)C(=O)C[C@@H](O)[C@]2(C)CC1
< 4.70

Repeat for the following molecule: CC(C)(O)[C@@H]1CC[C@](C)([C@H]2CC[C@]3(C)[C@@H]2CC[C@@H]2[C@@]4(C)CCC(=O)OC(C)(C)[C@@H]4CC[C@]23C)O1
< 4.70

Repeat for the following molecule: COC(=O)[C@H]1[C@@H](O)[C@@]2(O)c3c(OC)cc(O[C@@H]4O[C@@H]([C@H](O)CO)CO[C@H]4OC)cc3O[C@@]2(c2ccc(OC)cc2)[C@@H]1c1ccccc1
< 4.70

Repeat for the following molecule: CC(C)(O)[C@@H]1CC[C@@](C)([C@H]2CC[C@]3(C)[C@@H]2CC[C@@H]2[C@@]4(C)CCC(=O)OC(C)(C)[C@@H]4CC[C@]23C)O1
< 4.70

The values you see were collected from ChEMBL document CHEMBL1649336.
